# Target System: T1, SNTB1, Q13884
# T1 sequence (Q13884 107-205, limits assumed, looked up): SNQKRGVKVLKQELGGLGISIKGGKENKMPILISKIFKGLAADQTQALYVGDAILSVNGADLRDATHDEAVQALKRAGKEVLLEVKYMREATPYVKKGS
# Measurement Protocol: holdup assay
# Set-up: key: below the threshold = too weak to quantify, mostly under pKd 3.1 to 4
# Test Parameters: plain residues with an end cap or a label only (N-terminal biotin on a linker: ahx)
Measure Name: pKd

These recorded examples may help you get a feel for the data.
[ask] Identify pKd associated with the binder PSASCAVTAA [PDLIM4, P50479;P50479-2]
[reply] below the threshold

[ask] For HNAFLSVTTV [PDZRN4, Q6ZMN7] , write its pKd.
[reply] 3.54

[ask] Specify measured pKd for SDSSGQEYSL [KCTD3, Q9Y597] .
[reply] below the threshold

[ask] Note pKd for the binder shown: LSDPSVSTVV [GRIN1, Q05586]
[reply] 3.55

[ask] Let me know recorded pKd for RAVEEEESRF [PSCDBP, O60759] , thanks.
[reply] below the threshold

Further cases:
[ask] Give recorded pKd. NRKREIFSNF [NHERF2, Q15599]
[reply] below the threshold

Numbers sourced from paper PMC9482650.
